target: AMPK
method summary: AMPK activation, enzyme-linked immunosorbent assay
Format: biochemical
condition summary: compounds of Table 5 (Table 10)
pEC50: −log10 of the molar value.
parameter: pEC50

Answered examples (5):
O=C(NC1CCN(Cc2ccccc2)CC1)c1ccc(OC2CCN(Cc3ccc(F)c(F)c3)CC2)c(Cl)c1 :: > 6.00
O=C(NC1CCN(Cc2ccccc2)CC1)c1ccc(OC2CCN(Cc3ccc(Cl)c(Cl)c3)CC2)c(Cl)c1 :: > 6.00
O=C(NCCCN1CCOCC1)c1ccc(OC2CCN(Cc3ccc(Cl)cc3)CC2)cc1 :: 5.00 to 6.00
O=C(NC1CCN(Cc2ccccc2)CC1)c1ccc(OC2CCN(Cc3ccc(OC(F)(F)F)cc3)CC2)cc1 :: > 6.00
O=C(NC1CCN(Cc2ccccc2)CC1)c1ccc(OC2CCN(Cc3ccccc3C(F)(F)F)CC2)c(Cl)c1 :: 4.70 to 5.00

Query: pEC50; subject: N#Cc1ccc(CN2CCC(Oc3ccc(C(=O)NC4CCNCC4)cc3)CC2)cc1 < 4.00

Which pEC50 is reported for this compound? CC(C)(C)OC(=O)N1CCN(C(=O)c2ccc(OC3CCN(Cc4ccccc4)CC3)cc2)CC1 5.00 to 6.00

# lookup: pEC50 of N#Cc1cccc(CN2CCC(Oc3cccc(C(=O)NC4CCN(Cc5ccccc5)CC4)c3)CC2)c1 5.00 to 6.00

So what's the measured pEC50 for this one? O=C(NC1CCN(Cc2ccccc2)CC1)c1ccc(OC2CCN(Cc3ccc(OC(F)(F)F)cc3)CC2)c(Cl)c1 > 6.00

Would you mind telling me what pEC50 value was observed for O=C(NC1CCN(Cc2ccc(F)cc2)CC1)c1ccc(OC2CCN(Cc3ccc(Cl)cc3)CC2)c(Cl)c1 ? > 6.00

Reported pEC50 for N#Cc1ccc(N2CCC(Oc3ccc(C(=O)NC4CCN(Cc5ccc(Cl)cc5)CC4)cc3F)CC2)cc1 : what is it? > 6.00

Given O=C(NC1CCN(Cc2ccccc2)CC1)c1ccc(OC2CCN(Cc3ccc(OC(F)(F)F)cc3)CC2)c(F)c1 , state its recorded pEC50. > 6.00

Give its pEC50 value. Item: O=C(NC1CCN(Cc2ccccc2)CC1)c1cc(Cl)c(OC2CCN(Cc3ccc(F)c(F)c3)CC2)c(Cl)c1 > 6.00

Bench note: what pEC50 did O=C(NC1CCN(Cc2ccc(Cl)cc2)CC1)c1ccc(OC2CCN(Cc3ccc(Cl)cc3)CC2)c(F)c1 show? > 6.00

pEC50 for O=C(NC1CCN(Cc2ccccc2)CC1)c1cccc(OC2CCN(c3ccncc3)CC2)c1 ? 4.70 to 5.00

Recorded pEC50 for Cc1ccc(CN2CCC(Oc3ccc(C(=O)NC4CCN(Cc5ccccc5)CC4)cc3F)CC2)cc1 , please? > 6.00

----------
target: AMPK
method summary: AMPK activation, enzyme-linked immunosorbent assay
Type: biochemical
condition summary: compounds of Table 1 (Table 6)
pEC50: −log10 of the molar value.
parameter: pEC50

O=C(N[C@@H]1CCN(Cc2ccncc2)C1)c1cc2cc(OC3CCN(c4ccc(C(F)(F)F)cc4)CC3)ccc2o1 [1-122] :: 6.30 to 7.00
O=C(NC1CCN(Cc2ccncc2)CC1)c1ccc(OC2CCN(c3ccc(C(F)(F)F)cc3)CC2)nc1 [1-10] :: > 7.00

Which value of pEC50 has been reported for N#Cc1ccc(CN2CCC(Oc3ccc4oc(C(=O)NC5CCN(Cc6ccccc6)CC5)cc4c3)CC2)cc1 [1-70] in the records? > 7.00

Dear colleague, I am looking for the recorded pEC50 of the following molecule: O=C(N[C@@H]1CCN(Cc2ccccn2)C1)c1cc2cc(OC3CCN(c4ccc(C(F)(F)F)cc4)CC3)ccc2o1 [1-124] 5.30 to 6.00

Return reported pEC50; argument: N#Cc1ccc(N2CCC(Oc3ccc(C(=O)NC4CCN(Cc5cccnc5)CC4)nc3)CC2)cc1 [1-6] 6.30 to 7.00

Dear colleague, I am looking for the recorded pEC50 of the following molecule: COC(=O)c1ccc(CN2CCC(NC(=O)c3ccc(OC4CCN(c5ccc(C(F)(F)F)cc5)CC4)nc3)CC2)cc1 [1-45] < 5.00

Looking for the measured pEC50 of N#Cc1ccc(CN2CCC(NC(=O)c3cc4ccc(OC5CCN(c6ccc(C(F)(F)F)cc6)CC5)cc4o3)CC2)cc1 [1-90] , can you help? > 7.00
